test_details: qHTS assay to identify small molecule HDAC inhibitors - cell viability counter screen (AID 1259365); note: % is set by controls: 0 for no effect and ±100 for the full control effect; nearly all actives have a fitted effect of over 50% in size
measurement_context: HCT-116 viability, CellTiter-Glo ATP luminescence, 2 h; series mostly up to 92.4 µM
Activity calls are given as the source filed them. Calls come from the whole dose curve; as a rule, active = well fitted cell-killing curve with a large enough effect in the repeat runs; inconclusive = weak or mixed curves, or effect the other way; inactive = flat fitted curve, though single readings scatter.
readout_label: activity change, negative = cytotoxicity

Field: example entries. Status: answers known.
{"compound": "COc1cc2c(cc1OC)[C@@H]1CC(=O)[C@@H](CC(C)C)CN1CC2", "activity change, negative = cytotoxicity": "inactive"}
{"compound": "O=Cc1ccc(Cl)c(Cl)c1", "activity change, negative = cytotoxicity": "inactive"}
{"compound": "O=C(Nc1ccc(Cl)c(Cl)c1)C1CC1", "activity change, negative = cytotoxicity": "inactive"}
{"compound": "CC(C)NCC(O)COc1cccc2[nH]ccc12 (stereo not drawn)", "activity change, negative = cytotoxicity": "inactive"}
{"compound": "O=C(OCC(O)CO)c1ccccc1Nc1ccnc2c(C(F)(F)F)cccc12 (stereo not drawn)", "activity change, negative = cytotoxicity": "inactive"}

// lookup activity change, negative = cytotoxicity for "Cc1cc(NC(=O)C2=C(O)c3ccccc3S(=O)(=O)N2C)no1"
inactive

// lookup activity change, negative = cytotoxicity for "O=C(NCCN1CCOCC1)c1ccc(Cl)cc1"
inactive

// lookup activity change, negative = cytotoxicity for "CCN(CC)CC(=O)Nc1c(C)cccc1C"
inactive

// lookup activity change, negative = cytotoxicity for "CC(=O)NCCCCCC(=O)O"
inactive

// lookup activity change, negative = cytotoxicity for "C=CC(OCC)OCC"
inactive

// lookup activity change, negative = cytotoxicity for CCCCC(CC)COCCO (stereo not drawn)
inactive

// lookup activity change, negative = cytotoxicity for "On1nnc2ccccc21"
inactive

----------
test_details: qHTS RealTime-Glo MT Cell Viability Assay in HEK293 cells - 40 hour (AID 1224874); note: % is set by controls: 0 for no effect and ±100 for the full control effect; nearly all actives have a fitted effect of over 50% in size
measurement_context: RealTime-Glo luminescence; active compounds read low
Results filed as inconclusive are left out.
readout_label: max response (%)
# unit: % | format: bare number

{"molecule": "CC1=C(C(=O)O)N2C(=O)[C@@H](NC(=O)[C@H](N)c3ccc(O)cc3)[C@H]2SC1", "assay_value": 13.3}
{"molecule": "CC(=O)NCCCCCC(=O)O", "assay_value": 5.61}
{"molecule": "CCOc1cc(NC(C)=O)ccc1C(=O)OC", "assay_value": -4.96}
{"molecule": "CC[C@H](C)C(=O)O[C@H]1C[C@H](O)C=C2C=C[C@H](C)[C@H](CC[C@@H](O)C[C@@H](O)CC(=O)O)[C@H]21", "assay_value": 13.5}
{"molecule": "C=C(C)C1CCC(C)(O)CC1 (configuration not stated)", "assay_value": 2.04}
{"molecule": "BrCc1cccc(Oc2ccccc2)c1", "assay_value": -9.91}

// lookup max response for "CC(C)CCCCOC(=O)c1ccccc1C(=O)OCCCCC(C)C"
-1.41

// lookup max response for "CC(C)=CCOC(=O)c1ccccc1"
-0.369

// lookup max response for "CNC(=O)[C@H]1O[C@@H](n2cnc3c(NCc4cc(Cl)ccc4OCc4cc(C)no4)ncnc32)[C@H](O)[C@@H]1N"
0.414

// lookup max response for CC(CC=O)CCCC(C)(C)O (configuration not stated)
3.36

// lookup max response for "COc1cc(C(=S)N2CCOCC2)cc(OC)c1OC"
4.79

// lookup max response for NC(CO)C(=O)NNCc1ccc(O)c(O)c1O (configuration not stated)
2.85

----------
test_details: qHTS RealTime-Glo MT Cell Viability Assay in HEK293 cells - 8 hour (AID 1224887); note: top concentration of the series differs between compounds; % is set by controls: 0 for no effect and ±100 for the full control effect; nearly all actives have a fitted effect of over 50% in size
measurement_context: RealTime-Glo luminescence; series mostly up to 76.8 µM
Results filed as inconclusive are left out. Active and inactive are the calls of the source. Calls come from the whole dose curve; as a rule, active = well fitted cell-killing curve with a large enough effect in the repeat runs; inconclusive = weak or mixed curves, or effect the other way; inactive = flat fitted curve, though single readings scatter.
Choose one outcome from this list and give only that: active, inactive

{"compound": "CCN1CCc2nc(N)oc2CC1", "label_value": "inactive"}

Lab log entry: "CC1(C)S[C@@H]2[C@H](N=CN3CCCCCC3)C(=O)N2[C@H]1C(=O)O" — outcome as called in the assay?
inactive

Lab log entry: "CCCCCOC(=O)CCC" — outcome as called in the assay?
inactive

Lab log entry: "Cc1cccc(C)c1NC(=O)c1ccccc1C(=O)O" — outcome as called in the assay?
inactive

Lab log entry: "CN(C)C(=O)CNC(=O)Cc1ccccc1" — outcome as called in the assay?
inactive

Lab log entry: O=C(CS(=O)Cc1ccco1)NC/C=C\COc1cc(CN2CCCCC2)ccn1 (stereo unspecified) — outcome as called in the assay?
inactive

Lab log entry: "O=C(CCN1CCN(CCO)CC1)N1c2ccccc2Sc2ccc(C(F)(F)F)cc21" — outcome as called in the assay?
inactive

Lab log entry: "CC(C)(C)c1n[nH]c(=S)n(N)c1=O" — outcome as called in the assay?
inactive

Lab log entry: CC(COC(C)(C)C)OCCCO (stereo unspecified) — outcome as called in the assay?
inactive

----------
test_details: qHTS assay to identify small molecule agonists of the hypoxia (HIF-1) signaling pathway - cell viability counter screen (AID 1224844); note: % is set by controls: 0 for no effect and ±100 for the full control effect; nearly all actives have a fitted effect of over 50% in size
measurement_context: HRE-bla ME-180 viability, CellTiter-Glo luminescence, 17 h; series mostly up to 76.8 µM
Records with an inconclusive call do not appear. Calls of active or inactive are those of the source. Calls come from the whole dose curve.
readout_label: activity change, negative = cytotoxicity

{"compound": "CO[C@@H]1[C@@H](OC(N)=O)[C@@H](O)[C@H](Oc2ccc3c(O)c(NC(=O)c4ccc(O)c(CC=C(C)C)c4)c(=O)oc3c2C)OC1(C)C", "activity change, negative = cytotoxicity": "inactive"}
{"compound": "C=CCCCCCCCCCCCC", "activity change, negative = cytotoxicity": "inactive"}
{"compound": "C#CC(C)N(C)C(=O)Nc1ccc(Cl)cc1 (stereo unspecified)", "activity change, negative = cytotoxicity": "inactive"}
{"compound": "CC(=O)NCCCCCC(=O)O", "activity change, negative = cytotoxicity": "inactive"}

// lookup activity change, negative = cytotoxicity for "O=C1CC(c2ccc(Cl)cc2)CC(=O)N1"
inactive

// lookup activity change, negative = cytotoxicity for "Cc1c(I)c(=O)n(-c2ccccc2)n1C"
inactive

----------
test_details: qHTS RealTime-Glo MT Cell Viability Assay in HepG2 cells - 16 hour (AID 1224885)
measurement_context: RealTime-Glo luminescence; series mostly up to 76.8 µM
Results filed as inconclusive are left out. Activity calls are given as the source filed them. Calls come from the whole dose curve; as a rule, active = well fitted cell-killing curve with a large enough effect in the repeat runs; inconclusive = weak or mixed curves; inactive = flat fitted curve, though single readings scatter.
readout_label: activity change, negative = cytotoxic

{"molecule": "N[C@@H](COP(=O)(O)O)C(=O)O", "activity change, negative = cytotoxic": "1.13% [at 15.8 µM] (inactive)"}
{"molecule": "CC(=O)NCCCCCC(=O)O", "activity change, negative = cytotoxic": "inactive"}
{"molecule": "CC(C)(C)c1n[nH]c(=S)n(N)c1=O", "activity change, negative = cytotoxic": "inactive"}
{"molecule": "CN1CCN(CC(=O)N2c3ccccc3C(=O)Nc3cccnc32)CC1", "activity change, negative = cytotoxic": "0.498% [at 6.97 µM] (inactive)"}
{"molecule": "CC(C)c1ccc2cc(C(C)C)ccc2c1", "activity change, negative = cytotoxic": "inactive"}
{"molecule": "CCC(C)(CCC(C)C)C(=O)O (stereo not drawn)", "activity change, negative = cytotoxic": "inactive"}

// lookup activity change, negative = cytotoxic for "COCCOCCOCCOCCOCCO"
inactive

// lookup activity change, negative = cytotoxic for "CC(=O)CCCCn1c(=O)c2c(ncn2C)n(C)c1=O"
inactive

// lookup activity change, negative = cytotoxic for "O=C(O)C(=O)Cc1ccccc1"
inactive

// lookup activity change, negative = cytotoxic for "CN(CCOc1ccc(NS(C)(=O)=O)cc1)CCc1ccc(NS(C)(=O)=O)cc1"
inactive

// lookup activity change, negative = cytotoxic for CC(C)CC(C)CC(C)CC(C)COC(=O)c1ccccc1C(=O)OCC(C)CC(C)CC(C)CC(C)C (stereo not drawn)
inactive

// lookup activity change, negative = cytotoxic for "O=C(CCN1CCN(CCO)CC1)N1c2ccccc2Sc2ccc(C(F)(F)F)cc21"
inactive

// lookup activity change, negative = cytotoxic for "Nc1ccc2cc(S(=O)(=O)O)cc(O)c2c1"
inactive

----------
target_desc: Luciferin 4-monooxygenase (Photinus pyralis)
test_details: qHTS assay to identify small molecule inhibitors of firefly luciferase (AID 1224835); note: % is set by controls: 0 for no effect and ±100 for the full control effect; nearly all actives have a fitted effect of over 25% in size
measurement_context: purified P. pyralis luciferase, luminescence inhibition; series mostly up to 115 µM
Results filed as inconclusive are left out. Activity calls are given as the source filed them. The call rests on the fitted dose curve; in most records, active means well fitted inhibition curve with a large enough effect in the repeat runs; inconclusive means weak or mixed curves; inactive means flat fitted curve, though single readings scatter.
Choose one outcome from this list and give only that: active, inactive

Solved cases (5 shown):
{"compound": "CCCC/C=C\\CCCCCCCCCC=O", "target_desc": "Luciferin 4-monooxygenase (Photinus pyralis)", "label_value": "inactive"}
{"compound": "Nc1ncnc(Nc2ccccc2)n1", "target_desc": "Luciferin 4-monooxygenase (Photinus pyralis)", "label_value": "inactive"}
{"compound": "CC[C@H](C)C(=O)O[C@H]1C[C@H](O)C=C2C=C[C@H](C)[C@H](CC[C@@H](O)C[C@@H](O)CC(=O)O)[C@H]21", "target_desc": "Luciferin 4-monooxygenase (Photinus pyralis)", "label_value": "inactive"}
{"compound": "CC(=C(CCOC(=O)C(C)C)SSC(CCOC(=O)C(C)C)=C(C)N(C=O)Cc1cnc(C)nc1N)N(C=O)Cc1cnc(C)nc1N", "target_desc": "Luciferin 4-monooxygenase (Photinus pyralis)", "label_value": "inactive"}
{"compound": "CCCCC(CC)COCCO (stereo not drawn)", "target_desc": "Luciferin 4-monooxygenase (Photinus pyralis)", "label_value": "inactive"}

Lab log entry: "CCOC(=O)CC(=O)c1ccccc1" — outcome as called in the assay?
inactive

Lab log entry: Cc1ccccc1C(=O)Nc1ccc(C(=O)N2CCCC(N(C)C)c3ccccc32)cc1 (stereo not drawn) — outcome as called in the assay?
inactive
